- Test system: SNB-19 CNS
- TEST_SUMMARY: NCI tumour cell line growth inhibition, 48 h
I'd be grateful if you could share measured TGI for these entries.

Here's what some known entries look like.
CC(=O)NC1C(OCc2ccccc2)OC(COC(=O)CCCCCCCCCCNC(=O)CCNc2ccc([N+](=O)[O-])c3[nH]c4ccc(O)cc4c(=O)c23)C(O)C1OC(C)C(=O)N[C@H](C(=O)N[C@H](CCC(=O)O)C(N)=O)C(C)C (stereo partly specified) :: > 100 µM
COc1cccc(-c2nn(C)c3sc(C(=O)NCCN4CCN(c5ccccc5F)CC4)cc23)c1 :: > 100 µM
CC1(C)OC(=O)C(c2ccsc2)C(=O)O1 :: > 100 µM
CCOC(=O)C(/C=N/C(N)=S)=C(/O)c1ccccc1 :: > 100 µM
O=[N+]([O-])C(=C(\Cl)NCCO)/C(Cl)=C(/Cl)Br :: 18 µM

Now for another entry.
Bench note: what TGI did CSc1c(C#N)c(=O)n(N)c2n[nH]c(C)c12 show? > 100 µM

---

So I've got a bunch of compounds here, and I need their TGI values.
- Tested on: BT-549 breast
- TEST_SUMMARY: NCI tumour cell line growth inhibition, 48 h

Look over these answered cases.
COc1ccc(C(CC(=O)c2ccc(O)cc2)C(C(=O)c2ccc(O)cc2)C(c2ccc(OC)cc2)C2C(=O)NC(=S)NC2=O)cc1 (stereo not given) :: 47.9 µM
COc1ccc(/C=N/C2=C(C#N)C(c3ccccc3)c3ccc4ccccc4c3O2)cc1 (stereo not given) :: > 100 µM
Cc1nc(N(C)C)nc(-c2cccc(-c3ccn(CCN(C)C)n3)c2)c1C :: > 20 µM
FC1(F)SC2CCCCCCCCCCC2C1(F)F (stereo not given) :: > 100 µM

As a next step, examine the compound that follows.
Request - read-out TGI | tested on BT-549 breast | compound O=C1C=C(NCCc2ccc(O)cc2)C(=O)C=C1NCCc1ccc(O)cc1 > 100 µM

---

Exercise: state measured TGI for each of the compounds provided.
- Test system: K-562 leukemia
- TEST_SUMMARY: NCI tumour cell line growth inhibition, 48 h

Worked examples follow.
COc1ccc2oc(=O)c(-c3nc4ccccc4s3)cc2c1 :: > 100 µM
Cc1ccc(Sc2cc([N+](=O)[O-])cc(Sc3ccc(C)cc3)c2Sc2ccc(C)cc2)cc1 :: > 100 µM
O=c1oc2ccc([N+](=O)[O-])cc2cc1-c1csc(-c2ccccc2)n1 :: > 100 µM
O=C(c1ccccc1)C(c1ccccc1)C1(O)C(=O)Nc2ccc(Br)cc21 (stereo not drawn) :: 80.8 µM
NCCCCNCCCNC(=O)c1csc(-c2nc(CCN)sc2Cl)n1 :: > 100 µM
CC1(C)OC(=O)C(c2ccsc2)C(=O)O1 :: > 100 µM
C=C(C)[C@H]1C=C[C@@H](OC(C)=O)[C@@]2(COC(C)=O)[C@H](OC(=O)CCC)[C@H]3[C@@H](OC(C)=O)[C@@H](C)C[C@]3(O)C(=O)[C@@](C)(OC(C)=O)[C@H]12 :: > 100 µM
CC(NC(=O)C1(N)CCCC1)C(=O)O (stereo not drawn) :: > 100 µM

List reported TGI for each of these compounds:
1. COc1ccc(-c2c3c(n(C4OC(COC(C)=O)C(OC(C)=O)C(OC(C)=O)C4OC(C)=O)c(=S)c2C#N)CCCC3)cc1 (stereo not drawn)
2. CCN(CC)CCCNc1c2cc(OC)ccc2nc2cccc([N+](=O)[O-])c12
3. CN(C)CCNc1nc2c(c(=O)n(C)c(=O)n2C)n1C
4. CN1CCN2CCN(C)CCN(CC1)CC2
5. CSc1c(C#N)c(=O)n(N)c2n[nH]c(C)c12
6. CCOC1=NC(C(F)(F)F)(C(F)(F)F)N=C(/N=C(/N)N(C)C(C(C)C)P(=O)(OC(C)C)OC(C)C)O1 (stereo not drawn)

1. > 100 µM
2. 0.104 µM
3. > 100 µM
4. > 100 µM
5. > 100 µM
6. > 100 µM
